For each entry below, report its IC50 value.
target: Urease subunit alpha/Urease subunit beta (Helicobacter pylori (strain ATCC 700392 / 26695) (Campylobacterpylori)); assay: Inhibition of Helicobacter pylori urease assessed as ammonia production preincubated for 1.5 hrs by indophenol method
Sequence (P69996 whole entry): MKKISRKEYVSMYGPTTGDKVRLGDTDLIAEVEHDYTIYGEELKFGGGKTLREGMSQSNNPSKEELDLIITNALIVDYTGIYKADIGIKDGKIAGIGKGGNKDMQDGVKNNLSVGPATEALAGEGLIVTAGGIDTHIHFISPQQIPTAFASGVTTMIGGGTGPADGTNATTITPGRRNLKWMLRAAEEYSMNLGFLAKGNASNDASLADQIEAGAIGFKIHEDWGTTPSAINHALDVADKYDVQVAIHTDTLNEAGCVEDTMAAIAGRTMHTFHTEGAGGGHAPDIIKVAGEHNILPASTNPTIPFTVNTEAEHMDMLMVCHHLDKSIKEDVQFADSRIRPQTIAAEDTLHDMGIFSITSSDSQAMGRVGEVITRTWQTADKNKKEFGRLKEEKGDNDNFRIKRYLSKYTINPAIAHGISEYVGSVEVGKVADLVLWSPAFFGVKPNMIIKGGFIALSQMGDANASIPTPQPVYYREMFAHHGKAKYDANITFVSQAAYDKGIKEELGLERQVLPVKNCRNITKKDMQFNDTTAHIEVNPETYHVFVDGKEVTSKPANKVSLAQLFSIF
Sequence (P14916 whole entry, further chain): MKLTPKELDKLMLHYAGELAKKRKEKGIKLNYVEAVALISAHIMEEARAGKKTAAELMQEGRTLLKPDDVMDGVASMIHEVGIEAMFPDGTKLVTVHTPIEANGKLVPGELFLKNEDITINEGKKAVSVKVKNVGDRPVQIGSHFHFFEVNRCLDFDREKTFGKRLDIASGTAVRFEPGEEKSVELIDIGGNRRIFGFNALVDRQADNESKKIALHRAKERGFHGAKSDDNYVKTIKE
Give the value in µM but do not write µM after it.

Kindly indicate its recorded IC50. Item: O=C1OCC(O)=C1c1cccc(Br)c1
81.8

Query IC50 for O=C1OCC(O)=C1c1ccccc1OCc1ccccc1
50

Tell me its IC50 given O=C1OCC(O)=C1c1cccc(C(F)(F)F)c1 as the entry.
64.4

Give IC50 for the following molecule: O=C1OCC(O)=C1c1cccc(F)c1
62

Using known records, supply IC50 for O=C1OCC(O)=C1c1cccc(Cl)c1
45.3

Recall and state the measured IC50 for Cc1ccccc1C1=C(O)COC1=O .
65

For the molecule O=C1OCC(O)=C1c1ccccc1Cl , report IC50.
68

Supply recorded IC50 for O=C1OCC(O)=C1c1ccccc1 here.
89

Give me measured IC50, please, for this molecule: O=C1OCC(O)=C1c1cccc(OCc2ccccc2)c1
77.5

Using known records, supply IC50 for O=C1OCC(O)=C1c1ccc(OCc2ccccc2)cc1
10.5

Please give the documented IC50 of O=C1OCC(O)=C1c1ccc(F)cc1
40.6

Answer with the recorded IC50 of COc1ccc(C2=C(O)COC2=O)cc1OC only.
36.5

Output measured IC50 for this item: O=C1OCC(O)=C1c1ccccc1F
75

Retrieve IC50 measured for Cc1cccc(C2=C(O)COC2=O)c1 and print it.
31.1

Give recorded IC50. CCOc1ccc(C2=C(O)COC2=O)cc1OCC
91.7

###

assay: Antioxidant activity assessed as DPPH radical scavenging activity incubated for 30 mins
Quantity Kind: pIC50
# log scale: pIC50 equals minus log10 of the concentration in mol/L

Specify pIC50 for O=C1O[C@H]([C@@H](O)CO)C(O)=C1O and stop.
4.92

###

assay: Antioxidant activity assessed as DPPH radical scavenging activity incubated for 30 mins; details: DPPH radical solution
Quantity Kind: pIC50
Expect pIC50 as a plain number equal to -log10 of the molar concentration.

Report pIC50 for O=C1OCC(O)=C1c1ccc(Cl)c(Cl)c1
4.54

Please give measured pIC50 of the following entry: O=C1OCC(O)=C1c1ccc(Br)cc1
4.77

# return recorded pIC50 for input Cc1ccccc1C1=C(O)COC1=O
4.34

Return pIC50 (reported value) for this compound: O=C1OCC(O)=C1c1ccccc1
4.87

Write down pIC50 measured for item CCOc1ccc(C2=C(O)COC2=O)cc1OCC
4.63

Read the entry O=C1OCC(O)=C1c1cccc(OCc2ccccc2)c1 and write its reported pIC50.
4.50

For the compound Cc1cccc(C2=C(O)COC2=O)c1 , give its reported pIC50.
5.09

Check the records and state pIC50 for O=C1OCC(O)=C1c1cccc(F)c1
4.63

Identify pIC50 associated with the compound O=C1OCC(O)=C1c1ccc(Cl)cc1
4.73

Using known records, supply pIC50 for COc1ccc(C2=C(O)COC2=O)cc1OC
4.69

Read the entry O=C1OCC(O)=C1c1cccc(Cl)c1 and write its reported pIC50.
4.78

Tell me pIC50 reported for O=C1OCC(O)=C1c1cccc(C(F)(F)F)c1
3.96

Please indicate pIC50 recorded for Cc1ccc(C2=C(O)COC2=O)cc1
4.91

Return pIC50 for the following compound: O=C1OCC(O)=C1c1cccc(Br)c1
4.95

Tell me measured pIC50 for O=C1OCC(O)=C1c1ccc(OCc2ccccc2)cc1 please.
4.47
